Each entry below carries its reported Repolarization Potential (ΔΨ in - mV).
# Test system: rat liver mitochondria (RLM)
# assay_details: Mitochondrial transmembrane electric potential (ΔΨ) of RLM, safranine fluorescence
# Type: biochemical
# condition_summary: succinate; 10 μM

Record lookup: for rat liver mitochondria (RLM), what Repolarization Potential (ΔΨ in - mV) belongs to CS(=O)(=O)[O-].O=C(/C=C/c1cc(O)c(O)c(O)c1)NCCCCCC[P+](c1ccccc1)(c1ccccc1)c1ccccc1 [AntiOxCIN4] ?
183.5 ± 10.5 mV

====

# System: rat liver mitochondria (RLM)
# assay_details: Mitochondrial transmembrane electric potential (ΔΨ) of RLM, safranine fluorescence
# Format: biochemical
# condition_summary: glutamate/malate; 2.5 μM
# Procedure: In an embodiment, and as an example, AntiOxCINs and MitoQ toxicity effects on the mitochondrial bioenergetics, namely on RLM ΔΨ and mitochondrial respiration parameters, were measured. […] In addition, the mitochondrial oxidative phosphorylation coupling index, known as respiratory control ratio (RCR, state 3/state 4 respiration) and ADP/O index (the coupling between ATP synthesis and oxygen consumption) were also calculated. […]
Entries and their ADP-induced depolarization (ΔΨ in - mV) values follow.
Give a bare numeral; the unit mV is implied.

Here is how some compounds turned out for ADP-induced depolarization (ΔΨ in - mV).
{"compound": "CS(=O)(=O)[O-].O=C(/C=C/c1ccc(O)c(O)c1)NCCCCCCCC[P+](c1ccccc1)(c1ccccc1)c1ccccc1 [AntiOxCIN3]", "number": 199.4}
{"compound": "CS(=O)(=O)[O-].O=C(/C=C/c1cc(O)c(O)c(O)c1)NCCCCCCCC[P+](c1ccccc1)(c1ccccc1)c1ccccc1 [AntiOxCIN5]", "number": 207.5}
{"compound": "CS(=O)(=O)[O-].O=C(/C=C/c1cc(O)c(O)c(O)c1)NCCCCCCCCCC[P+](c1ccccc1)(c1ccccc1)c1ccccc1 [AntiOxCIN7]", "number": 212.2}

In the following, a different compound is considered.
Look up ADP-induced depolarization (ΔΨ in - mV) for this compound: CS(=O)(=O)[O-].O=C(/C=C/c1ccc(O)c(O)c1)NCCCCCC[P+](c1ccccc1)(c1ccccc1)c1ccccc1 [AntiOxCIN2]
186.2
